Biological target: P. falciparum apicoplast DNA polymerase (Pf-apPOL) (Plasmodium falciparum)
Assay: Fluorescence-based high-throughput DNA polymerase assay (molecular beacon), primary screen and dose-response
Assay type: biochemical
Details: DRC-2; concentration 2.5; 5'
Provide the recorded % inhibition Apo pol 5' for the entries that follow.
Show the value, then the unit it is measured in.

Write down the reported % inhibition Apo pol 5' of `COc1ccc(NC(=O)Cn2nc3c(cc2=O)CCC3)cc1Cl` , test system: P. falciparum apicoplast DNA polymerase (Pf-apPOL) (Plasmodium falciparum).
19%

Also, `CCCCCc1c2c(cc(O)c1C(=O)O)OC(=O)c1c(cc(OC)cc1C(=O)CCCC)O2` please.
11%

Also, `O=[N+]([O-])c1ccc(SCc2ccco2)c2cccnc12` please.
33%

Also, `CCc1ccccc1NC(=O)c1ccc(-c2ncccc2NC(C)=O)cc1` please.
0.547%

Also, O=C(Cn1ccc2c(=O)[nH]ccc21)Nc1ccccc1Cl [Molecule 19, O=C(Cn1ccc2c1cc[nH]c2=O)Nc1ccccc1Cl] please.
15%

Also, `O=C(Nc1c2c(nn1-c1ccccc1)CSC2)c1ccco1` please.
24%

Also, CCOc1ccc2cc(C3=NN(C(=O)CCC(=O)O)C(c4ccc(C)cc4)C3)c(=O)[nH]c2c1 (stereo not shown) please.
2.23%

----------
Target: P. falciparum apicoplast DNA polymerase (Pf-apPOL) (Plasmodium falciparum, UniProt Q8ILY1)
Sequence (Q8ILY1 entry or part of it): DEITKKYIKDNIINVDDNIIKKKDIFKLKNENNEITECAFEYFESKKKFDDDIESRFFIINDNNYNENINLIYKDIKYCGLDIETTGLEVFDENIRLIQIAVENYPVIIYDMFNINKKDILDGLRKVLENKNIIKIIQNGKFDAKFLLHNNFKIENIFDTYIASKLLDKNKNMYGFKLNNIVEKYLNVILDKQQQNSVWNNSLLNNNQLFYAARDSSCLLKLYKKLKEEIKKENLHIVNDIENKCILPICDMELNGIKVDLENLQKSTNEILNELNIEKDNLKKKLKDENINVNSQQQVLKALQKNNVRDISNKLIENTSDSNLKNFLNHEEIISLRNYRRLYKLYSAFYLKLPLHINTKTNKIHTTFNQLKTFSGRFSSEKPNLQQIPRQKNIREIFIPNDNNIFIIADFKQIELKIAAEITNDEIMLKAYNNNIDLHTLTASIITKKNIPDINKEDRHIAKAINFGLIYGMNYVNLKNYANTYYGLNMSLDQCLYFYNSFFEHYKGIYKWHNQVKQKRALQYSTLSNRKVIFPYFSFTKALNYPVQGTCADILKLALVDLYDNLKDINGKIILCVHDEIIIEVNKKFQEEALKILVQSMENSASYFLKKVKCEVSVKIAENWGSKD
Assay: Fluorescence-based high-throughput DNA polymerase assay (molecular beacon), primary screen and dose-response;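 for % inhibition ApPOL 90': test concentration in µM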
Type: biochemical
Details: DRC-2; 90'; concentration 40
PROPERTY MEASURED: % inhibition ApPOL 90' (%)
Give the number; % is assumed, so skip it.

Sample `O=C1c2ccccc2C(=O)N1Oc1ccc([N+](=O)[O-])c([N+](=O)[O-])c1` — what was its % inhibition ApPOL 90'?
50

Also, `Cn1nc(-c2nc(-c3ccccc3)no2)c2c1CCN(C(=O)Cc1cccs1)C2` please.
54

Also, Cc1ccc(N2CCC(NC(=O)Cc3cccs3)C2=O)cc1C (centres unmarked) please.
47

Also, `CC(C)(C)c1cc(C(=O)C(C#N)=NNc2cccc(Cl)c2)no1` please.
58

Also, `Cc1ccccc1C(=O)N1CCc2c(nc3cc(-c4ccccc4)[nH]n3c2=O)C1` please.
61

Also, `COc1ccc(-c2cc3nc4c(c(=O)n3[nH]2)CCN(C(=O)CCc2ccccc2)C4)cc1` please.
57

Also, `O=C(O)c1cc([N+](=O)[O-])c(N2CCN(c3cccc(C(F)(F)F)c3)CC2)c([N+](=O)[O-])c1` please.
63

Also, `Cc1cc(C)c2c(O)nc(SCC(=O)c3ccc(O)c(O)c3)nc2n1` please.
71

----------
Provide the recorded % inhibition Apo pol 10' 80 for the entries that follow.
Biological target: P. falciparum apicoplast DNA polymerase (Pf-apPOL) (Plasmodium falciparum, UniProt Q8ILY1)
Assay: Fluorescence-based high-throughput DNA polymerase assay (molecular beacon), primary screen and dose-response
Format: biochemical
Settings: DRC-1; read at 10'; concentration 80
Show the value, then the unit it is measured in.

Sample `Cn1nc(-c2nc(-c3ccccc3)no2)c2c1CCN(C(=O)Cc1cccs1)C2` — what was its % inhibition Apo pol 10' 80?
65%

Also, `CC(=O)Nc1cc(C(=O)c2cccs2)nn(-c2ccc(Cl)cc2)c1=O` please.
68.442%

Also, COc1ccc(C2CC(c3ccc(Cl)cc3Cl)Nc3nc(N)nn32)cc1OC (centres unmarked) please.
71%

Also, `CC(=O)OCC1=C(C(=O)[O-])N2C(=O)[C@@H](NC(=O)Cc3cccs3)[C@H]2SC1.[Na+]` please.
83.4409%

Also, `Cc1nc(C)c2c(n1)N(CC1CCCCC1)C(=O)CC2` please.
55.4322%
